The origin of these recorded values is PubChem BioAssay AID1963856.

tested on: LG0567-F671-PDC KRAS tumor spheroid viability; experiment: Anticancer human tumor LG0567-F671-PDC patient-derived lung adenocarcinoma cell line growth inhibition [KRAS2]; conditions: second compound 1 µM; first compound 1 µM; spheroids with HUVEC and MSC; active means viability on the fitted dose curve at most 10% of control; inactive means the rest;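 further: drug exposure lasted seven days after spheroids formed for three days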
Tick one outcome: active, inactive

CC1OCC2(CCN(c3cnc(Sc4ccnc(N)c4Cl)c(N)n3)CC2)C1N (stereo not given) + COc1cc2nc(C)nc(NC(C)c3cc(N)cc(C(F)(F)F)c3)c2cc1OC1CCOC1: inactive
O=C(c1cc(Cc2n[nH]c(=O)c3ccccc23)ccc1F)N1CCN(C(=O)C2CC2)CC1 + CNCc1ccccc1-c1csc(C(C)Nc2nc(C)nc3cc(OC)c(OC)cc23)c1: inactive
CCN1CCN(Cc2ccc(Nc3ncc(F)c(-c4cc(F)c5nc(C)n(C(C)C)c5c4)n3)nc2)CC1 + COc1cc2nc(C)nc(NC(C)c3cc(N)cc(C(F)(F)F)c3)c2cc1OC1CCOC1: inactive
COc1cc(Nc2ncc3c(n2)-c2ccc(Cl)cc2C(c2c(F)cccc2OC)=NC3)ccc1C(=O)O + C=CC(=O)N1CCN(c2nc(OCC3CCCN3C)nc3c2CCN(c2cccc4cccc(C)c24)C3)CC1CC#N: inactive
CCNC(=O)CC1N=C(c2ccc(Cl)cc2)c2cc(OC)ccc2-n2c(C)nnc21 (stereo not given) + CC1OCC2(CCN(c3cnc(Sc4ccnc(N)c4Cl)c(N)n3)CC2)C1N: inactive
COc1cc2nccc(Oc3ccc(NC(=O)C4(C(=O)Nc5ccc(F)cc5)CC4)cc3)c2cc1OC + C=CC(=O)N1CCN(c2nc(OCC3CCCN3C)nc3c2CCN(c2cccc4cccc(C)c24)C3)CC1CC#N: inactive
CC1OCC2(CCN(c3cnc(Sc4ccnc(N)c4Cl)c(N)n3)CC2)C1N (stereo not given) + CNCc1ccccc1-c1csc(C(C)Nc2nc(C)nc3cc(OC)c(OC)cc23)c1: inactive
CC(=O)OC12COC1CC(O)C1(C)C(=O)C(O)C3=C(C)C(OC(=O)C(O)C(NC(=O)OC(C)(C)C)c4ccccc4)CC(O)(C(OC(=O)c4ccccc4)C21)C3(C)C (stereo not given) + COc1cc2nc(C)nc(NC(C)c3cc(N)cc(C(F)(F)F)c3)c2cc1OC1CCOC1: inactive

Call for entry CC1COCCN1c1cc(-c2ccnn2C)c2ccnc(-c3ccn[nH]3)c2n1 (stereo not given) + C=CC(=O)N1CCN(c2nc(OCC3CCCN3C)nc3c2CCN(c2cccc4cccc(C)c24)C3)CC1CC#N :
inactive

Repeat for the following compound: CCN1CCN(Cc2ccc(Nc3ncc(F)c(-c4cc(F)c5nc(C)n(C(C)C)c5c4)n3)nc2)CC1 + CC1OCC2(CCN(c3cnc(Sc4ccnc(N)c4Cl)c(N)n3)CC2)C1N
inactive

Repeat for the following compound: CC1(C)CCC(CN2CCN(c3ccc(C(=O)NS(=O)(=O)c4ccc(NCC5CCOCC5)c([N+](=O)[O-])c4)c(Oc4cnc5[nH]ccc5c4)c3)CC2)=C(c2ccc(Cl)cc2)C1 + C=CC(=O)N1CCN(c2nc(=O)n(-c3c(C)ccnc3C(C)C)c3nc(-c4c(O)cccc4F)c(F)cc23)C(C)C1
inactive

Repeat for the following compound: COc1cc(Nc2ncc3c(n2)-c2ccc(Cl)cc2C(c2c(F)cccc2OC)=NC3)ccc1C(=O)O + C=CC(=O)N1CCN(c2nc(=O)n(-c3c(C)ccnc3C(C)C)c3nc(-c4c(O)cccc4F)c(F)cc23)C(C)C1
inactive

Repeat for the following compound: COC(=O)c1ccc2c(C(=Nc3ccc(N(C)C(=O)CN4CCN(C)CC4)cc3)c3ccccc3)c(O)[nH]c2c1 + COc1cc2nc(C)nc(NC(C)c3cc(N)cc(C(F)(F)F)c3)c2cc1OC1CCOC1
inactive

Repeat for the following compound: CC(=O)OC12COC1CC(O)C1(C)C(=O)C(O)C3=C(C)C(OC(=O)C(O)C(NC(=O)OC(C)(C)C)c4ccccc4)CC(O)(C(OC(=O)c4ccccc4)C21)C3(C)C (stereo not given) + CNCc1ccccc1-c1csc(C(C)Nc2nc(C)nc3cc(OC)c(OC)cc23)c1
inactive

Repeat for the following compound: CC1COCCN1c1cc(-c2ccnn2C)c2ccnc(-c3ccn[nH]3)c2n1 (stereo not given) + CNCc1ccccc1-c1csc(C(C)Nc2nc(C)nc3cc(OC)c(OC)cc23)c1
inactive

Repeat for the following compound: CC(C)NCC(C(=O)N1CCN(c2ncnc3c2C(C)CC3O)CC1)c1ccc(Cl)cc1 (stereo not given) + CNCc1ccccc1-c1csc(C(C)Nc2nc(C)nc3cc(OC)c(OC)cc23)c1
inactive

Repeat for the following compound: COc1cc(Nc2ncc3c(n2)-c2ccc(Cl)cc2C(c2c(F)cccc2OC)=NC3)ccc1C(=O)O + CC1OCC2(CCN(c3cnc(Sc4ccnc(N)c4Cl)c(N)n3)CC2)C1N
inactive

Repeat for the following compound: CCNC(=O)CC1N=C(c2ccc(Cl)cc2)c2cc(OC)ccc2-n2c(C)nnc21 (stereo not given) + CNCc1ccccc1-c1csc(C(C)Nc2nc(C)nc3cc(OC)c(OC)cc23)c1
inactive

Repeat for the following compound: CCN1CCN(Cc2ccc(Nc3ncc(F)c(-c4cc(F)c5nc(C)n(C(C)C)c5c4)n3)nc2)CC1 + C=CC(=O)N1CCN(c2nc(=O)n(-c3c(C)ccnc3C(C)C)c3nc(-c4c(O)cccc4F)c(F)cc23)C(C)C1
inactive

Repeat for the following compound: CCNC(=O)CC1N=C(c2ccc(Cl)cc2)c2cc(OC)ccc2-n2c(C)nnc21 (stereo not given) + COc1cc2nc(C)nc(NC(C)c3cc(N)cc(C(F)(F)F)c3)c2cc1OC1CCOC1
active
